biological target: UniProtKB Q99ZW2; test: eGFP-disruption assay in U2OS.eGFP.PEST cells; format: cell-based, S. pyogenes; parameters: host or cells: U2OS.eGFP.PEST; conditions: screen of structural analogs of BRD7087; 15 μM compound, 24 h, U2OS.eGFP.PEST cells
metric-name: Inhibition activity Rep 1

Take a look at these entries with their results.
COCC(=O)N1CC[C@@H]2[C@H](CO)Nc3ccc(C#Cc4cccc(F)c4)cc3[C@@H]21 = 51.1
O=C(C1CC1)N1CC[C@@H]2[C@H](CO)Nc3ccc(Br)cc3[C@@H]21 = 46.0
O=C(C1CCCCC1)N1CC[C@@H]2[C@H](CO)Nc3ccc(C#Cc4ccc(F)cc4)cc3[C@@H]21 = 53.2

IN: Request - read-out Inhibition activity Rep 1 | tested on UniProtKB Q99ZW2 | compound `COc1ccccc1CN1CC[C@@H]2[C@H]1c1cc(C#Cc3ccccc3)ccc1N[C@@H]2CO`
OUT: 49.8

IN: Entry `COc1cccc(-c2ccc3c(c2)[C@@H]2[C@@H](CCN2C(=O)c2cnccn2)[C@@H](CO)N3)c1` , system UniProtKB Q99ZW2: what Inhibition activity Rep 1 was measured?
OUT: 53.0

IN: Query the reported Inhibition activity Rep 1 for UniProtKB Q99ZW2; item: `COc1ccccc1C#Cc1ccc2c(c1)[C@H]1[C@H](CCN1C(=O)c1cccc(F)c1)[C@H](CO)N2`
OUT: 47.1

IN: Form field: Inhibition activity Rep 1 recorded for `O=S(=O)(c1cccc(F)c1)N1CC[C@H]2[C@H](CO)Nc3ccc(C#Cc4ccccc4F)cc3[C@H]21` with UniProtKB Q99ZW2 (enter value)
OUT: 64.3

###

biological target: UniProt:Q99ZW2; test: eGFP-disruption assay in U2OS.eGFP.PEST cells; type: cell-based, S. pyogenes; design: host or cells: U2OS.eGFP.PEST; details: screen of structural analogs of BRD7087; 15 μM compound, 24 h, U2OS.eGFP.PEST cells
Rule: Average Inhibition activity below 60 gives criterion met, anything at or above gives criterion not met.

Reference set, count: 5
CN1c2ccc(C#Cc3cccnc3)cc2[C@@H]2[C@@H](CCN2C(=O)c2cccc(F)c2)[C@@H]1CO = criterion not met
COc1ccc(C#Cc2ccc3c(c2)[C@H]2[C@H](CCN2C(=O)c2ccccc2F)[C@H](CO)N3C)cc1 = criterion met
CN1c2ccc(-c3ccc(C#N)cc3)cc2[C@@H]2[C@@H](CCN2S(=O)(=O)c2cccc(F)c2)[C@H]1CO = criterion met
COc1ccccc1-c1ccc2c(c1)[C@H]1[C@H](CCN1C(=O)CN1CCOCC1)[C@H](CO)N2C = criterion met
CN1c2ccc(C#Cc3cccnc3)cc2[C@@H]2[C@@H](CCN2C(=O)c2cccc(F)c2)[C@H]1CO = criterion not met

IN: Find out if reported Average Inhibition activity for `CN1c2ccc(C#Cc3cccnc3)cc2[C@@H]2[C@@H](CCN2S(=O)(=O)c2ccccc2F)[C@H]1CO` is less than 60
OUT: criterion met

###

Measured Inhibition activity Rep 1 accompanies every entry in the list below.
biological target: SpCas9 (Streptococcus pyogenes serotype M1, UniProt Q99ZW2); experiment: eGFP-disruption assay in U2OS.eGFP.PEST cells; format: cell-based, S. pyogenes; set-up: host or cells: U2OS.eGFP.PEST; settings: screen of structural analogs of BRD7087; 15 μM compound, 24 h, U2OS.eGFP.PEST cells
Sequence (Q99ZW2 whole entry): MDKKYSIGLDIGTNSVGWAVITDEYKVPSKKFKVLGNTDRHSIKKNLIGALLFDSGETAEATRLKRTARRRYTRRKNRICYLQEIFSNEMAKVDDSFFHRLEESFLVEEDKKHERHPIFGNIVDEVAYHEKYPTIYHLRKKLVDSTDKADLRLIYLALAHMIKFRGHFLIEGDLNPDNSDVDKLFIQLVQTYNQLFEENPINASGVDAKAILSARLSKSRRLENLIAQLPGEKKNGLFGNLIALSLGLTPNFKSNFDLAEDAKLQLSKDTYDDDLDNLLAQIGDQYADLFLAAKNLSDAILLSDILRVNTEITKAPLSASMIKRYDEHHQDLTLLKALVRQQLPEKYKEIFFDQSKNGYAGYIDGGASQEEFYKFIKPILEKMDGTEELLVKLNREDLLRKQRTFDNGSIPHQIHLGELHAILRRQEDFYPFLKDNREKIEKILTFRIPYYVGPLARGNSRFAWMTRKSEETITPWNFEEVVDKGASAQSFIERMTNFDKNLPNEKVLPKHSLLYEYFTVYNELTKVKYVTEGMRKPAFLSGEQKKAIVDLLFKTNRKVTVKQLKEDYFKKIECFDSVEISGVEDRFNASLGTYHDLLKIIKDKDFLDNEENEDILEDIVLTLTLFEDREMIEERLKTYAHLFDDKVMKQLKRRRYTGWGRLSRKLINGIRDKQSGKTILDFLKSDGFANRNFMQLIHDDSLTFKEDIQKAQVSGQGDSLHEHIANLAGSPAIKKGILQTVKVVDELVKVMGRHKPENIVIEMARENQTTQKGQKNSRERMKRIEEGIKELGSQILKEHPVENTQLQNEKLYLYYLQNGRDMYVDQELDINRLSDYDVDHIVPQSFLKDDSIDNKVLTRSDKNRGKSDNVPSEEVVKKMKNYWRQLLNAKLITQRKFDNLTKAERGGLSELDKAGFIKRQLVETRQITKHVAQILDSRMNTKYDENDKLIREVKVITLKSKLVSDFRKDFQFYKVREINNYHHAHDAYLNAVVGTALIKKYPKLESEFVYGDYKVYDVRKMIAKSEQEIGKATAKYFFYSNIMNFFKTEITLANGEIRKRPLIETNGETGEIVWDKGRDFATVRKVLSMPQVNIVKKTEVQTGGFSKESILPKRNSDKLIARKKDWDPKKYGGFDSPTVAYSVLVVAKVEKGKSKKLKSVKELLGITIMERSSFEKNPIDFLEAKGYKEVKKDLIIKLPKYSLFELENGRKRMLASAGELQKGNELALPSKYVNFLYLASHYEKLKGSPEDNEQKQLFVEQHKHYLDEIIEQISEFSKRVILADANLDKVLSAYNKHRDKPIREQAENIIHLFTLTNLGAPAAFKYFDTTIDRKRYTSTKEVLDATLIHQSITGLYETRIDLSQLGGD
Kindly provide the number alone.

O=C(C1CCCCC1)N1CC[C@@H]2[C@H]1c1cc(Br)ccc1N[C@@H]2CO = 67.5

IN: Consider the compound `CN1c2ccc(C#Cc3ccccc3)cc2[C@@H]2[C@@H](CCN2S(=O)(=O)c2cn(C)cn2)[C@H]1CO` and give its measured Inhibition activity Rep 1.
OUT: 50.1

IN: So what's the measured Inhibition activity Rep 1 for this one? `O=C(c1ccccc1)N1CC[C@@H]2[C@H]1c1cc(C#CC3CCCCC3)ccc1N[C@@H]2CO`
OUT: 57.8

IN: Look up Inhibition activity Rep 1: `O=C(CC1CC1)N1CC[C@@H]2[C@H]1c1cc(-c3ccc(F)cc3)ccc1N[C@@H]2CO`
OUT: 48.3

IN: Form field: reported Inhibition activity Rep 1 of `CN1c2ccc(C#Cc3cccnc3)cc2[C@H]2[C@H](CCN2S(=O)(=O)c2ccccc2F)[C@@H]1CO`
OUT: 67.8

###

biological target: SpCas9 (Streptococcus pyogenes serotype M1); experiment: eGFP-disruption assay in U2OS.eGFP.PEST cells; assay type: cell-based, S. pyogenes; set-up: host or cells: U2OS.eGFP.PEST; details: screen of structural analogs of BRD7087; 15 μM compound, 24 h, U2OS.eGFP.PEST cells
metric-name: Average Inhibition activity
Form field (numeric): enter value without unit.

As a guide, the following entries are already answered.
O=S(=O)(c1ccc(F)cc1)N1CC[C@@H]2[C@H](CO)Nc3ccc(C#CC4CC4)cc3[C@@H]21 = 45.1
CN1c2ccc(C#Cc3cccnc3)cc2[C@H]2[C@H](CCN2S(=O)(=O)c2ccccc2F)[C@@H]1CO = 62.6
CN1c2ccc(C#Cc3ccccc3)cc2[C@@H]2[C@@H](CCN2S(=O)(=O)c2cn(C)cn2)[C@H]1CO = 60.1
COCC(=O)N1CC[C@@H]2[C@H](CO)Nc3ccc(C#Cc4cccc(F)c4)cc3[C@@H]21 = 50.9
Cc1ccccc1S(=O)(=O)N1CC[C@@H]2[C@H](CO)N(C)c3ccc(C#Cc4ccc(F)cc4)cc3[C@@H]21 = 51.1
O=C(C1CCCCC1)N1CC[C@@H]2[C@H]1c1cc(Br)ccc1N[C@@H]2CO = 70.7

IN: I would be grateful if you could share the reported Average Inhibition activity for `N#Cc1ccc(-c2ccc3c(c2)[C@H]2[C@H](CCN2C(=O)Cc2ccccc2)[C@@H](CO)N3)cc1` .
OUT: 57.6

###

Reported inhibition at 15 µM values are given for each entry in this list.
molecular target: SpCas9 (Streptococcus pyogenes serotype M1, UniProt Q99ZW2); test: eGFP-disruption assay in U2OS.eGFP.PEST cells; type: cell-based, S. pyogenes; set-up: host or cells: U2OS.eGFP.PEST; settings: screen of structural analogs of BRD7087; 15 μM compound, 24 h, U2OS.eGFP.PEST cells; read-out: Average Inhibition activity
Just the number please, in %, no unit attached.

IN: Please give the measured inhibition at 15 µM for this molecule: `Cc1ccc(S(=O)(=O)N2CC[C@@H]3[C@H](CO)Nc4ccc(-c5ccccc5F)cc4[C@@H]32)cc1`
OUT: 64.2

IN: Can you share its inhibition at 15 µM? I mean this molecule: `COc1cccc(-c2ccc3c(c2)[C@H]2[C@H](CCN2C(=O)Cc2ccncc2)[C@H](CO)N3C)c1`
OUT: 78.6

IN: What value of measured inhibition at 15 µM is listed for `CN1c2ccc(C#Cc3cccnc3)cc2[C@@H]2[C@@H](CCN2C(=O)C2CCCCC2)[C@H]1CO` ?
OUT: 53.5

IN: Consider the molecule shown here: `CN1c2ccc(C#Cc3cccnc3)cc2[C@H]2[C@H](CCN2C(=O)Nc2cc(F)ccc2F)[C@@H]1CO` What is its recorded inhibition at 15 µM?
OUT: 76.4

###

Parameter: Inhibition activity Rep 1. Scope: all listed entries.
target: SpCas9 (Streptococcus pyogenes serotype M1, UniProt Q99ZW2); test: eGFP-disruption assay in U2OS.eGFP.PEST cells; format: cell-based, S. pyogenes; parameters: host or cells: U2OS.eGFP.PEST; conditions: screen of structural analogs of BRD7087; 15 μM compound, 24 h, U2OS.eGFP.PEST cells
No unit in the answer, please; the number alone is enough.

IN: Please state recorded Inhibition activity Rep 1 (tested on SpCas9 (Streptococcus pyogenes serotype M1, UniProt Q99ZW2)) of `COc1ccccc1C#Cc1ccc2c(c1)[C@H]1NCC[C@H]1[C@@H](CO)N2`
OUT: 53.7

###

biological target: SpCas9 (Streptococcus pyogenes serotype M1, UniProt Q99ZW2); test: eGFP-disruption assay in U2OS.eGFP.PEST cells; format: cell-based, S. pyogenes; design: host or cells: U2OS.eGFP.PEST; details: screen of structural analogs of BRD7087; 15 μM compound, 24 h, U2OS.eGFP.PEST cells
metric-name: Average Inhibition activity
API doc: respond with a numeric literal and nothing else, no unit.

Examples with their reported Average Inhibition activity follow.
O=S(=O)(c1cccc(F)c1)N1CC[C@@H]2[C@H]1c1cc(C#Cc3ccccc3F)ccc1N[C@@H]2CO [BRD-K14474387] = 61.3
COc1ccccc1C#Cc1ccc2c(c1)[C@H]1[C@H](CCN1C(=O)CN1CCOCC1)[C@H](CO)N2 [BRD-K26627503] = 56.9
O=C(C1CCCCC1)N1CC[C@@H]2[C@H](CO)Nc3ccc(Br)cc3[C@@H]21 [BRD-K60987574] = 60.9

IN: // lookup Average Inhibition activity for COc1ccc(S(=O)(=O)N2CC[C@@H]3[C@H](CO)N(C)c4ccc(-c5ccccc5F)cc4[C@@H]32)cc1 [BRD-K69451415]
OUT: 53.4
